I'd appreciate it if you could supply pIC50 values for the items below.
# test-target: recombinant human kinase, MNK1 (Homo sapiens, UniProt Q9BUB5)
# Sequence (Q9BUB5 whole entry): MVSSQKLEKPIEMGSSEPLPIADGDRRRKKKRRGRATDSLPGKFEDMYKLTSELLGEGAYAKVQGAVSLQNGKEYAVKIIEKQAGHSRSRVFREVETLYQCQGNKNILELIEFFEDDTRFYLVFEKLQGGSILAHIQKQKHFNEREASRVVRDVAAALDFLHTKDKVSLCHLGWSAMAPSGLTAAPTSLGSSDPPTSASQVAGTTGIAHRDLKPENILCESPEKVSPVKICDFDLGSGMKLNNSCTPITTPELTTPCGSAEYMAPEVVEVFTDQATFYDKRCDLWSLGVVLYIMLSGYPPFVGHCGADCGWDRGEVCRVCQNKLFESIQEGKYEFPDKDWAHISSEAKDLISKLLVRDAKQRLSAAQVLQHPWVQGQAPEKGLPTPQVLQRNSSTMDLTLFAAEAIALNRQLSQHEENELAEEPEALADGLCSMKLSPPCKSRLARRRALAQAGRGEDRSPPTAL
# test-summary: MNK1 substrate phosphorylation assay
One number for each entry, as −log10 of the molar value.

Nc1cc(Nc2cc(Cl)c3n(c2=O)C2(CCC4(CC4)CC2)NC3=O)ncn1 | 7.43

// below: pIC50 requested for another compound
Specify reported pIC50 for the compound shown: Cc1cc(Nc2cc(N)ncn2)c(=O)n2c1C(=O)NC21CCC2(CCC2)C1 (centres unmarked) 7.51

###

Give IC50 for every item shown.
# test-target: recombinant human kinase, MNK2 (Homo sapiens, UniProt Q9HBH9)
# Sequence (Q9HBH9 whole entry): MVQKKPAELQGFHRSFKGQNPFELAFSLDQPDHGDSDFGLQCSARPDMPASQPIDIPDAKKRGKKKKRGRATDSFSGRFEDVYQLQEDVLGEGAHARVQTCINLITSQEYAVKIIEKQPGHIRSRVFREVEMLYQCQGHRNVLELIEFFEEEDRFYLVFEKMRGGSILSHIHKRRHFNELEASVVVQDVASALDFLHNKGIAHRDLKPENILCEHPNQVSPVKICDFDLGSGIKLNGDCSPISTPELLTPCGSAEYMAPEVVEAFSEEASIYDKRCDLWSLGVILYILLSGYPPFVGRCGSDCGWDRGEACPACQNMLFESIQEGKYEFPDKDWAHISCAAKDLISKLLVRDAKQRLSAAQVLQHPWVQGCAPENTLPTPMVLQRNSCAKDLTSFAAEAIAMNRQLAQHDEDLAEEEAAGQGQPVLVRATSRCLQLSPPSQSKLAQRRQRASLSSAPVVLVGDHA
# test-summary: MNK2 substrate phosphorylation assay
Answers are plain numbers, in nM.

Nc1cc(Nc2cc(Cl)c3n(c2=O)C2(CCC4(CC4)CC2)NC3=O)ncn1 | 1.86

Quick one: give measured IC50 for Cc1cc(Nc2cc(N)ncn2)c(=O)n2c1C(=O)NC21CCC2(CCC2)C1 (centres unmarked) 2.6
